Where these numbers come from: ChEMBL document CHEMBL1671701

# Tested on: HepG2
# assay.summary: Cytotoxicity activity against human HepG2 cells after 24 hrs
# Format: cell-based
# condition.notes: HepG2, 24 h
pIC50: −log10 of the molar value.
measured.property: pIC50

INSERT INTO assay_data (molecule, measured_property, observed_measurement) VALUES
  ('CCNC(=O)N1CCN(CCCC(c2ccc(F)cc2)c2ccc(F)cc2)CC1 [AMPEROZIDE]', 'pIC50', 4.02),
  ('c1cc(CN2CCCCC2)cc(OCCCNc2nc3ccccc3s2)c1 [ZOLANTIDINE]', 'pIC50', 4.12),
  ('COc1cccc(N(C(C)=O)C2=C(N(C)C)C(=O)c3ccccc3C2=O)c1', 'pIC50', 4.89),
  ('CC(=O)N(C1=C(N(C)C)C(=O)c2ccccc2C1=O)c1ccc(Cl)cc1', 'pIC50', 5.09),
  ('COc1cccc2c1C(=O)c1c(O)c3c(c(O)c1C2=O)C[C@@](O)(C(=O)CO)C[C@@H]3O[C@H]1C[C@H](N)[C@H](O)[C@H](C)O1', 'pIC50', 4.16),
  ('CC(=O)N(C1=C(N(C)C)C(=O)c2ccccc2C1=O)c1cccc(Cl)c1', 'pIC50', 5.29);

###

pIC50 reference
# assay.summary: Cytotoxicity activity against human HAEC cells after 24 hrs
# Assay type: cell-based
pIC50: −log10 of the molar value.
measured.property: pIC50

INSERT INTO results (molecule, observed_measurement) VALUES
  ('COc1cccc(N(C(C)=O)C2=C(N(C)C)C(=O)c3ccccc3C2=O)c1', 4.96),
  ('COc1cccc2c1C(=O)c1c(O)c3c(c(O)c1C2=O)C[C@@](O)(C(=O)CO)C[C@@H]3O[C@H]1C[C@H](N)[C@H](O)[C@H](C)O1', 4.89),
  ('CC(=O)N(C1=C(N(C)C)C(=O)c2ccccc2C1=O)c1ccc(Cl)cc1', 4.39),
  ('c1cc(CN2CCCCC2)cc(OCCCNc2nc3ccccc3s2)c1 [ZOLANTIDINE]', 4.12),
  ('CCNC(=O)N1CCN(CCCC(c2ccc(F)cc2)c2ccc(F)cc2)CC1 [AMPEROZIDE]', 4.08),
  ('CC(=O)N(C1=C(N(C)C)C(=O)c2ccccc2C1=O)c1cccc(Cl)c1', 4.35);
